# Postemergence herbicidal rating SETVI values compiled below
System: SETVI, Green foxtail, Setaria viridis, (L.)Beau
ASSAY OVERVIEW: Postemergence herbicidal evaluation (Example 147)
Assay type: in vivo
EXPERIMENTAL PARAMETERS: rate 0.016 kg/ha, rating scale 0-9, two to three weeks after treatment
# answer = number (no unit)

Request: Answer with the recorded Postemergence herbicidal rating SETVI of CCCN(C)S(=O)(=O)NC(=O)c1cc(-n2c(=O)cc(C(F)(F)F)n(C)c2=O)c(F)cc1Cl [Example 67] only.
Response: 8.0

Request: Determine its reported Postemergence herbicidal rating SETVI: CN(c1ccccc1)S(=O)(=O)NC(=O)c1cc(-n2c(=O)cc(C(F)(F)F)n(C)c2=O)c(F)cc1Cl [Example 73]
Response: 4.0

Request: Quick one: give measured Postemergence herbicidal rating SETVI for COc1cccc(CN(C)S(=O)(=O)NC(=O)c2cc(-n3c(=O)cc(C(F)(F)F)n(C)c3=O)c(F)cc2Cl)c1 [Example 70]
Response: 4.0

Could you now look at the following molecule, please?
Request: Identify the reported Postemergence herbicidal rating SETVI for the following entry. CN(Cc1ccccc1)S(=O)(=O)NC(=O)c1cc(-n2c(=O)cc(C(F)(F)F)n(C)c2=O)c(F)cc1Cl [Example 61]
Response: 7.0
